Data credit: paper PMC3445454

Molecular target: HLA-DP DPA1*01:03/DPB1*20:01 (Homo sapiens, UniProt P04440+P20036, A65V/A84D/A85E/E86D/F38Y/G113D/G114E/G40L/I94L/L37V/M116V/P115A/R125K/T199I)
Sequence (P20036 29-260): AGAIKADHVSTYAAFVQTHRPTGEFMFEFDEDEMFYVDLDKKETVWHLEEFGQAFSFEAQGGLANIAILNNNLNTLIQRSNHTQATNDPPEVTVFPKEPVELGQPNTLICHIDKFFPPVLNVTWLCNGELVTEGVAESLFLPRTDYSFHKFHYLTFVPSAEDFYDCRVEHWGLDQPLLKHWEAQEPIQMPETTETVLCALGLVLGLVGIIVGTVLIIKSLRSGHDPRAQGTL
Sequence (P04440 30-258 L37V/F38Y/G40L/A65V/A84D/A85E/E86D/I94L/G113D/G114E/P115A/M116V/R125K/T199I/V234M): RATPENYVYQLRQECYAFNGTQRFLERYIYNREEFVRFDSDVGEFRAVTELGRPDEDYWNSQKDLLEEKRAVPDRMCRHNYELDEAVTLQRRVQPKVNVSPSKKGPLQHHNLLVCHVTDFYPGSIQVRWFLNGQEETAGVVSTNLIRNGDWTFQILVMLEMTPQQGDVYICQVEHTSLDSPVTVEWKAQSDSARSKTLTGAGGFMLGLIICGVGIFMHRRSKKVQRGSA
Assay: biochemical
Format: binding
Ends that are not written are not given here.
observation.type: IC50 (µM)
Number only, in µM; omit the unit.

EAVRHFPRPWLHGL-NH2 [vpr(29-42)] :: 0.031

Now, please, on to the next substance.
Give the reported IC50 for this substance. VGSLQYLALTALITPKK-NH2 [vif(142-158)]
0.262
